# Tested on: NCI-H292 lung cancer cells
# Test: FDA drug screening, complete media vs cholesterol-free media with simvastatin (TABLE 2)
# Format: cell-based, human
# Conditions: complete media minus cholesterol-free media + simvastatin (0.04 μM); >0 enhanced anti-cancer activity, about 0 neutral, <0 antagonist
Below, each entry is listed with its recorded Difference.
Answer as a number with no unit attached.

Record excerpt, results attached:
{"Molecule": "CC(=O)O[C@]1(C(C)=O)CC[C@H]2[C@@H]3C=C(Cl)C4=CC(=O)CC[C@]4(C)[C@H]3CC[C@@]21C [Chlormadinone acetate]", "Difference": "−0.02"}
{"Molecule": "COC(=O)Nc1nc2cc(C(=O)c3ccc(F)cc3)ccc2[nH]1 [Flubendazole]", "Difference": "−0.04"}
{"Molecule": "CCOC(=O)C1=C(C)NC(C)=C(C(=O)OC)C1c1cccc([N+](=O)[O-])c1 (stereo not shown) [Nitrendipine]", "Difference": "−0.06"}
{"Molecule": "CCC(=O)O[C@]1(C(=O)CCl)[C@@H](C)C[C@H]2[C@@H]3C[C@H](F)C4=CC(=O)C=C[C@]4(C)[C@@]3(F)[C@@H](O)C[C@@]21C [Halobetasol (propionate)]", "Difference": 0.01}
{"Molecule": "NC(=O)c1cccc2cn(-c3ccc([C@@H]4CCCNC4)cc3)nc12 [Niraparib]", "Difference": 0.00}
{"Molecule": "CC(=O)O[C@]1(C(C)=O)CC[C@H]2[C@@H]3CCC4=CC(=O)CCC4=C3[C@@H](c3ccc(N(C)C)cc3)C[C@@]21C [Ulipristal acetate]", "Difference": 0.00}

// switching to the query molecule
Task item: Report Difference for CN1c2c(nc(N)[nH]c2=O)NC[C@@H]1CNc1ccc(C(=O)N[C@@H](CCC(=O)O)C(=O)O)cc1 [Levomefolic acid] please.
Reply: −0.05

====

# System: NCI-H292 lung cancer cells
# Test: FDA drug screening, complete media vs cholesterol-free media with simvastatin (TABLE 2)
# Format: cell-based, human
# Conditions: complete media minus cholesterol-free media + simvastatin (0.04 μM); >0 enhanced anti-cancer activity, about 0 neutral, <0 antagonist
Counter-ions that a name gives are not always drawn.
Readout Kind: Difference
Answer as a number with no unit attached.

Record excerpt, results attached:
{"Compound": "COc1nc(N)nc2c1ncn2[C@@H]1O[C@H](CO)[C@@H](O)[C@@H]1O [Nelarabine]", "Difference": 0.02}
{"Compound": "C=C1CC[C@@H]2[C@](C)(CO)[C@H](O)CC[C@@]2(C)[C@@H]1C/C=C1/C(=O)OC[C@H]1O [Andrographolide]", "Difference": "−0.94"}
{"Compound": "COc1ccc(-c2nc3ccc(C4=NNC(=O)CC4C)cc3[nH]2)cc1 (stereo not drawn) [Pimobendan]", "Difference": 0.00}
{"Compound": "CC1=C(CC(=O)O)c2cc(F)ccc2/C1=C\\c1ccc([S+](C)[O-])cc1 (stereo not drawn) [Sulindac]", "Difference": "−0.02"}
{"Compound": "COc1ccc2cc3[n+](cc2c1OC)CCc1cc2c(cc1-3)OCO2.O.[Cl-] [Berberine (chloride hydrate)]", "Difference": "−0.03"}

Task item: Report Difference for Nc1nc2[nH]cc(CCc3ccc(C(=O)N[C@@H](CCC(=O)O)C(=O)O)cc3)c2c(=O)[nH]1 [Pemetrexed] please.
Reply: −0.02

Task item: Report Difference for C[C@H]1O[C@@H](n2cc(F)c(=O)[nH]c2=O)[C@H](O)[C@@H]1O [Doxifluridine] please.
Reply: −0.05

Task item: Report Difference for COc1ccc2[n-]c([S+]([O-])Cc3ncc(C)c(OC)c3C)nc2c1.[Na+] (stereo not drawn) [Omeprazole (sodium)] please.
Reply: 0.01

Task item: Report Difference for COCC(=O)Nc1c(I)c(C(=O)NCC(O)CO)c(I)c(C(=O)N(C)CC(O)CO)c1I (stereo not drawn) [Iopromide] please.
Reply: −0.02

Task item: Report Difference for Nc1ccn([C@@H]2O[C@H](CO)[C@@H](O)C2(F)F)c(=O)n1 [Gemcitabine (hydrochloride)] please.
Reply: −0.02

Task item: Report Difference for CCOC(=O)[C@H](CCc1ccccc1)N[C@H]1CS[C@H](c2cccs2)CN(CC(=O)O)C1=O [Temocapril (hydrochloride)] please.
Reply: 0.01

Task item: Report Difference for N#Cc1ccc2[nH]cc(CCCCN3CCN(c4ccc5oc(C(=O)O)cc5c4)CC3)c2c1 [Vilazodone carboxylic acid] please.
Reply: 0.01

Task item: Report Difference for CC(C)=CCOc1ccc(/C=C/C(=O)c2ccc(OCC=C(C)C)cc2OCC(=O)O)cc1 [Sofalcone] please.
Reply: −0.05

Task item: Report Difference for O=c1ccc2ccccc2o1 [Coumarin] please.
Reply: −0.05

Task item: Report Difference for C[C@@H](O)[C@H]1C(=O)N2C(C(=O)O)=C(S[C@@H]3CN[C@H](C(=O)N(C)C)C3)[C@H](C)[C@H]12 [Meropenem (trihydrate)] please.
Reply: −0.05

Task item: Report Difference for Nc1cccc2c1C(=O)N(C1CCC(=O)NC1=O)C2=O (stereo not drawn) [Pomalidomide] please.
Reply: −0.06

Task item: Report Difference for CC1OC2(CS1)CN1CCC2CC1 (stereo not drawn) [Cevimeline (hydrochloride hemihydrate)] please.
Reply: 0.00

Task item: Report Difference for CC(C)OC(=O)CCC/C=C\C[C@@H]1[C@@H](CC[C@@H](O)CCc2ccccc2)[C@H](O)C[C@@H]1O [Latanoprost] please.
Reply: −0.05

====

# Tested on: NCI-H292 lung cancer cells
# Test: FDA drug screening, complete media vs cholesterol-free media with simvastatin (TABLE 2)
# Type: cell-based, human
# Conditions: complete media minus cholesterol-free media + simvastatin; […]
Structures can show the parent of a compound that is named as a salt. Numbered stars: 1 amine (or outer) side, 2 acyl side, 3 side chain; on linkers, the order of the positions; unused ones are H or OH. Bridge positions count the residues as written; N and C are the ends. Peptide text beside a SMILES is read from it. X2 = O=C(CCC[*:2])[*:1]
Mark yes for Difference under 0.2, no if at or over.

Solved cases below.
{"Compound": "CNCC(=O)N[C@@H](CCCN=C(N)N)C(=O)N[C@H](C(=O)N[C@@H](Cc1ccc(O)cc1)C(=O)N[C@H](C(=O)N[C@@H](Cc1cnc[nH]1)C(=O)N1CCC[C@H]1C(=O)N[C@@H](C)C(=O)O)C(C)C)C(C)C [Saralasin (TFA)]", "Assigned Category": "yes"}
{"Compound": "CN(C)C(=O)Oc1cccc([N+](C)(C)C)c1.COS(=O)(=O)[O-] [Neostigmine (methyl sulfate)]", "Assigned Category": "no"}
{"Compound": "CCOC(=O)c1cncn1[C@H](C)c1ccccc1 [Etomidate (hydrochloride)]", "Assigned Category": "no"}
{"Compound": "Cc1nnc(SCC2=C(C(=O)O)N3C(=O)[C@@H](NC(=O)Cn4cc(Cl)c(=O)c(Cl)c4)[C@H]3SC2)s1", "Assigned Category": "no"}
{"Compound": "Cc1ccccc1-n1c(CF)nc2ccc(N)cc2c1=O", "Assigned Category": "yes"}

Task item: Is Difference strictly under 0.2 for the entry COS(=O)(=O)[O-].COc1cc(N)cn[n+]1-c1ccccc1 [Amezinium (methylsulfate)] ?
Reply: no

Task item: Is Difference strictly under 0.2 for the entry C=C1CC[C@@H]2[C@](C)(COC(=O)CCC(=O)[O-])[C@H](OC(=O)CCC(=O)O)CC[C@@]2(C)[C@@H]1/C=C/C1=CCOC1=O.[K+] [Kalii Dehydrographolidi Succinas] ?
Reply: no

Task item: Is Difference strictly under 0.2 for the entry CC[C@H](C)[C@@H]1NC(=O)[C@H](Cc2ccc(OC)cc2)NC(=O)CCCSC[C@@H](C(=O)N2CCC[C@H]2C(=O)N[C@@H](CC(C)C)C(=O)NCC(N)=O)NC(=O)[C@H](CC(N)=O)NC(=O)[C@H](CCC(N)=O)NC1=O [Carbetocin] (Y(Me)IQNCPLG-NH2; linker N-5 via X2) ?
Reply: yes

Task item: Is Difference strictly under 0.2 for the entry `COc1ccccc1OC(=O)c1ccccc1OC(C)=O` ?
Reply: yes

Task item: Is Difference strictly under 0.2 for the entry CCCCCCCCCCCCCCCC[n+]1ccccc1.O.[Cl-] [Cetylpyridinium (chloride monohydrate)] ?
Reply: yes

Task item: Is Difference strictly under 0.2 for the entry CCOC(=O)/C=C(C)/C=C/C=C(C)/C=C/c1c(C)cc(OC)c(C)c1C [Etretinate] ?
Reply: no

Task item: Is Difference strictly under 0.2 for the entry OC[C@H]1NC[C@H](O)[C@@H](O)[C@H]1O [Migalastat (hydrochloride)] ?
Reply: yes

Task item: Is Difference strictly under 0.2 for the entry COc1ccnc(C[S+]([O-])c2nc3cc(OC(F)F)ccc3[n-]2)c1OC.[Na+] (centres unmarked) [Pantoprazole (sodium)] ?
Reply: yes

Task item: Is Difference strictly under 0.2 for the entry `Cc1cc(N2CCN([C@@H]3CN[C@H](C(=O)N4CCSC4)C3)CC2)n(-c2ccccc2)n1` ?
Reply: no
